Assay Procedure: Viability Counterscreen for CMV-Luciferase Assay of Inhibitors of ATXN expression; also: nearly all actives have a fitted effect of over 55% in size
Condition Details: HEK-293 CMV-luciferase cells viability, protease fluorescence, 24 h; series mostly up to 57.5 µM
Screen size: about 2,100 compounds; about 320 (15%) were called active. Inconclusive results (about 52%) are left out. Calls follow the shape of the dose curve; as a rule, active = well fitted cell-killing curve with a large enough effect; inconclusive = small, poorly fitted or top-dose-only effect, or effect the other way; inactive = flat fitted curve, though single readings scatter. The list shows a part of the results.
Answer with one of the outcomes given here: 1 = active, -1 = inactive

Examples from the recorded data:
[[record]]
compound = "C=CCCC[C@@H]1OC(=O)CNC(=O)C([C@@H](C)CC)NC(=O)[C@@H]2CCCN2C(=O)C([C@@H](C)CC)OC(=O)[C@H](Cc2ccccc2)N(C)C(=O)[C@H](C(C)C)NC(=O)C1(C)C (stereo partly specified)"
group_label = 1

[[record]]
compound = "C[C@H]1CCC[C@@H](O)CCC/C=C/c2cc(O)cc(O)c2C(=O)O1"
group_label = 1

[[record]]
compound = "O=c1[nH]c2ccccc2n1C1CCN(C(CCc2ccccc2)c2nnnn2C2CCCC2)CC1 (stereo unspecified)"
group_label = 1

[[record]]
compound = "COC12C(COC(N)=O)C3=C(C(=O)C(C)=C(N)C3=O)N1CC1C2N1C (stereo unspecified)"
group_label = 1

[[record]]
compound = "c1ccc2sc(N3CCNCC3)nc2c1"
group_label = -1


Q: Please let me know the test result on file for "c1ccc(CNc2c3c(nc4ccccc24)CCC3)cc1" .
Result: -1

Q: Tell me the recorded outcome of this test for Cc1cccc(C)c1-n1nnnc1C(c1cc2ccccc2o1)N1CCC(n2c(=O)[nH]c3ccccc32)CC1 (stereo unspecified) .
Result: 1

Q: Look up the recorded call for "Cc1ccc(/C=C2\C(=O)NC(=S)N(c3ccccc3F)C2=O)s1" in this test.
Result: 1

Q: Dear all, I need the recorded test outcome for "CC(=NCCc1c[nH]c2ccccc12)c1c(O)n(Cc2ccccc2)c(=O)[nH]c1=O" , thank you.
Result: -1

Q: Recorded call for "Cc1ccc(-c2nc(N(C)C3CCN(C)CC3)c3ccccc3n2)cc1" ?
Result: -1
